Attribution: patent USRE48461E1

tested on: AR mRNA; experiment: Dose-dependent antisense inhibition of human AR in HuVEC cells (electroporation, qRT-PCR RTS3559, IC50); type: cell-based; settings: Table 30; 187.5 nM, HuVEC, electroporation, approximately 16 hours
Oligonucleotides are written 5' to 3', each unit as a sugar letter and its base; * is a phosphorothioate linkage, no mark a phosphodiester; rarer units and linkages stand in square brackets, end groups in braces. Plain capitals give the bases only. k = constrained ethyl (cEt); [5mC] = 5-methylcytosine; d = 2'-deoxy (DNA)
So basically: percent inhibition of AR, 187.5 nM at 50% or higher? That is MET. Lower than 50%? That is NOT MET.

Observe how each entry below is paired with its result.
{"SUBSTANCE": "583637 (antisense kA*kT*k[5mC]*dT*d[5mC]*dT*dG*dG*d[5mC]*dT*d[5mC]*d[5mC]*dG*k[5mC]*kA*k[5mC]) [compound 583637]", "STUDY TARGET": "AR mRNA", "LABEL": "NOT MET"}
{"SUBSTANCE": "583712 (antisense k[5mC]*k[5mC]*kT*dT*dG*dA*dG*d[5mC]*dT*dT*dG*dG*d[5mC]*kT*kG*kA) [compound 583712]", "STUDY TARGET": "AR mRNA", "LABEL": "NOT MET"}
{"SUBSTANCE": "583736 (antisense kT*kG*kG*dA*dT*d[5mC]*dA*d[5mC]*dT*dT*d[5mC]*dG*d[5mC]*kG*k[5mC]*kA) [compound 583736]", "STUDY TARGET": "AR mRNA", "LABEL": "NOT MET"}
{"SUBSTANCE": "549372 (kA*kA*kG*dT*dT*dG*dT*dA*dG*dT*dA*dG*dT*k[5mC]*kG*k[5mC]) [compound 549372]", "STUDY TARGET": "AR mRNA", "LABEL": "NOT MET"}
{"SUBSTANCE": "583728 (antisense kG*k[5mC]*kT*d[5mC]*dT*dG*dG*dA*dA*d[5mC]*dA*dG*dA*kT*kT*k[5mC]) [compound 583728]", "STUDY TARGET": "AR mRNA", "LABEL": "NOT MET"}

// next entry
Problem: Assess whether reported percent inhibition of AR, 187.5 nM for 549458 (kG*kT*kT*dG*dA*dT*dT*dT*dA*dA*dT*dG*dG*kT*kT*kG) [compound 549458] sits at 50% or higher.
Result: MET

* * *

tested on: AR mRNA; experiment: Dose-dependent antisense inhibition of human AR in HuVEC cells (electroporation, qRT-PCR RTS3559, IC50); assay type: cell-based; conditions: Table 30; HuVEC, electroporation, approximately 16 hours
Oligonucleotides are written 5' to 3', each unit as a sugar letter and its base; * is a phosphorothioate linkage, no mark a phosphodiester; rarer units and linkages stand in square brackets, end groups in braces. Plain capitals give the bases only. k = constrained ethyl (cEt); [5mC] = 5-methylcytosine; d = 2'-deoxy (DNA)
REPORTED PROPERTY: IC50 (µM)
Give a bare numeral; the unit µM is implied.

Problem: Fill in the recorded IC50 for this substance, with AR mRNA as test system: 583736 (antisense kT*kG*kG*dA*dT*d[5mC]*dA*d[5mC]*dT*dT*d[5mC]*dG*d[5mC]*kG*k[5mC]*kA) [compound 583736]
Result: 0.51

Problem: # query: IC50 | item 583688 (antisense kG*k[5mC]*kG*dG*dT*dA*dG*dT*d[5mC]*dG*d[5mC]*dT*dG*k[5mC]*kA*kG) [compound 583688] | system: AR mRNA
Result: 1.05

Problem: Form field - read-out: IC50; system: AR mRNA; submitted item: 583687 (antisense kG*kG*kT*dA*dG*dT*d[5mC]*dG*d[5mC]*dT*dG*d[5mC]*dA*kG*k[5mC]*kT) [compound 583687]
Result: 0.08

Problem: Field: IC50 (AR mRNA). Entry: 583727 (antisense kG*kA*kT*dT*d[5mC]*dT*dG*dG*dA*dA*dA*dG*d[5mC]*kT*k[5mC]*k[5mC]) [compound 583727]
Result: 0.29
